System: Acinetobacter baumannii, ATCC 17978
Assay: MIC testing, broth microdilution in CAMHB
Type: cell-based
Conditions: 37° C., 18-20 hr, lowest concentration that completely inhibits visible growth
readout_type: Compound MICs, Acinetobacter baumannii, ATCC 17978 (µg/mL)
Report the figure in µg/mL without appending any unit label.

For Nc1nc(N)c2c(ccc3c2ccn3CCc2ccc(F)cc2)n1 [Compound 39] , what is its reported Compound MICs, Acinetobacter baumannii, ATCC 17978? 21.3

For Nc1nc(N)c2c(ccc3c2ccn3Cc2cccc(F)n2)n1 [Compound 48] , what is its reported Compound MICs, Acinetobacter baumannii, ATCC 17978? 0.79

For CC#Cc1ccc(Cn2ccc3c4c(N)nc(N)nc4ccc32)cc1 [Compound 25] , what is its reported Compound MICs, Acinetobacter baumannii, ATCC 17978? 21.3

Next:
For NCC#Cc1ccc(Cn2ccc3c4c(N)nc(N)nc4ccc32)cc1 [Compound 24] , what is its reported Compound MICs, Acinetobacter baumannii, ATCC 17978? 64

For COc1cccc(Cn2ccc3c4c(N)nc(N)nc4ccc32)n1 [Compound 67] , what is its reported Compound MICs, Acinetobacter baumannii, ATCC 17978? 0.26

For Nc1nc(N)c2c(ccc3c2ccn3Cc2csc(C(F)(F)F)n2)n1 [Compound 60] , what is its reported Compound MICs, Acinetobacter baumannii, ATCC 17978? 21.3

* * *

System: Acinetobacter baumannii, ATCC 17978
Experiment: MIC testing, broth microdilution in CAMHB
Assay type: cell-based
Conditions: 37° C., 18-20 hr, lowest concentration that completely inhibits visible growth
Entries and their measured Compound MICs, Acinetobacter baumannii, ATCC 17978 follow.

Some solved entries appear below for comparison.
For "Nc1nc(N)c2c(n1)c(-c1ccc(F)cc1)cc1c2ccn1Cc1ccc(F)cc1" , what is its reported Compound MICs, Acinetobacter baumannii, ATCC 17978? >64 µg/mL

For "Nc1nc(N)c2c(ccc3c2ccn3Cc2ccc(C#Cc3ccccc3)cc2)n1" , what is its reported Compound MICs, Acinetobacter baumannii, ATCC 17978? >64 µg/mL

For "Nc1nc(N)c2ccc(NCc3ccc(F)cc3)cc2n1" , what is its reported Compound MICs, Acinetobacter baumannii, ATCC 17978? >64 µg/mL

Next:
For "Nc1nc(NC2CC2)nc2ccc3c(ccn3Cc3ccc(C#Cc4ccccc4)cc3)c12" , what is its reported Compound MICs, Acinetobacter baumannii, ATCC 17978? >64 µg/mL

For "Nc1nc(N)c2c(ccc3c2ccn3Cc2ccc(C(F)(F)F)nc2)n1" , what is its reported Compound MICs, Acinetobacter baumannii, ATCC 17978? 7.11 µg/mL

For "CC(C)c1ccc(Cn2ccc3c4c(N)nc(N)nc4ccc32)nc1" , what is its reported Compound MICs, Acinetobacter baumannii, ATCC 17978? 7.11 µg/mL

For "Nc1nc(N)c2c(ccc3c2ccn3-c2ccc(F)cc2)n1" , what is its reported Compound MICs, Acinetobacter baumannii, ATCC 17978? 2.37 µg/mL

For "Nc1nc(N)c2c(n1)c(C1CC1)cc1c2ccn1Cc1ccc(F)cc1" , what is its reported Compound MICs, Acinetobacter baumannii, ATCC 17978? >64 µg/mL

For "Nc1nc(N)c2c(ccc3c2ccn3Cc2ccc(-c3ccccn3)cc2)n1" , what is its reported Compound MICs, Acinetobacter baumannii, ATCC 17978? 7.11 µg/mL

For "N#Cc1cncc(Cn2ccc3c4c(N)nc(N)nc4ccc32)c1" , what is its reported Compound MICs, Acinetobacter baumannii, ATCC 17978? 64 µg/mL
